Molecular target: T1, His6-tagged SPRY domain of human SPSB2 (residues 22-220) (human, UniProt Q99619 22-220)
T1 construct: SPRY domain of human SPSB2, UniProtKB Q99619, residues 22-220; also called SPRY domain-containing SOCS box protein 2; source: recombinant, purified (Ni-NTA; complexes with peptide by gel filtration on Superdex 75); preparation previously described [26]
T1 sequence (looked up): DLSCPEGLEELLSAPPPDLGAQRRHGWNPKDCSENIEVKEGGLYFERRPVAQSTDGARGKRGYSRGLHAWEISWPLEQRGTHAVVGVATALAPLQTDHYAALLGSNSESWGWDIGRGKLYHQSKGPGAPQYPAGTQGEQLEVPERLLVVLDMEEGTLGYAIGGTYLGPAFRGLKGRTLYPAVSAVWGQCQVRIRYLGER
Assay: ITC; 100 μM cR7 or cR9 titrated into 10 μM SPSB2; 25 °C; 50 mM Tris-HCl pH 7.5, 150 mM NaCl, 5 mM DTT; single binding site model
Settings: both partners purified
Readout kind: pKd
// field semantics: pKd = negative decimal log of concentration (mol/L)

Binder	pKd
RGDINNN (head-to-tail amide-cyclized, Cyclic: the last residue is amide-bonded to the first; source: synthetic peptide (GL Biochem Ltd.)) [cR7, cyclo(RGDINNN)]	6.99

Moving on to another binder below.
Item RGDINNNVE (head-to-tail amide-cyclized, designed cyclic peptide: RGD motif joined to the iNOS-derived stretch DINNNVE; Cyclic: the last residue is amide-bonded to the first; source: synthetic peptide (GL Biochem Ltd.)) [cR9, cyclo(RGDINNNVE)] has what recorded pKd?
6.51

The reported numbers originate from paper PMC11203437.
